Attribution: patent US20110250130A1

target: T1, Recombinant Human TNF-α/TNFSF1A (human, UniProt P01375 77-233); test: SPR (Biacore), antibody captured, TNF-α in solution
T1 construct: Bought reagent (R&D Systems 210-TA); also called hTNF-α; huTNF-α
T1 sequence (P01375 77-233 limits assumed): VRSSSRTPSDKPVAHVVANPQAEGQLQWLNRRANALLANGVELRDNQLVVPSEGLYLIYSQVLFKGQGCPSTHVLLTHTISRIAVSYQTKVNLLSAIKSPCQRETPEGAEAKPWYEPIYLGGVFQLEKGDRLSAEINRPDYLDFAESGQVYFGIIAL
Measured kon of individual entries
ENDPOINT_NAME: kon (M⁻¹ s⁻¹)

>  <BINDER>
AB255 (antibody, V domains shown, also called hMAK195VH.2 / hMAK195VL.2a) VH: EVQLVESGGGLVQPGGSLRLSCAASGFTFSDYGVNWVRQAPGKGLEWVSMIWGDGSTDYDSTLKSRFTISRDNSKNTLYLQMNSLRAEDTAVYYCAREWHHGPVAYWGQGTLVTVSS VL: EIVMTQSPATLSLSPGERATLSCKASQAVSSAVAWYQQKPGQSPRLLIYWASTRHTGVPARFSGSGSGTDFTLTISSLQPEDFAVYYCQQHYSTPFTFGQGTKLEIK

>  <ENDPOINT_NAME>
kon

>  <MEASURED>
2.62e+06

$$$$
>  <BINDER>
AB249 (antibody, V domains shown, also called A3249; hMAK195VH.1b / hMAK195VL.1a) VH: EVQLQESGPGLVKPSETLSLTCTVSGFSLSDYGVNWIRQPPGKGLEWIGMIWGDGSTDYDSTLKSRVTISKDTSKNQFSLKLSSVTAADTAVYYCAREWHHGPVAYWGQGTLVTVSS VL: DIQMTQSPSSLSASVGDRVTITCKASQAVSSAVAWYQQKPGKSPKLLIYWASTRHTGVPSRFSGSGSGTDFTLTISSLQPEDFATYYCQQHYSTPFTFGQGTKLEIK

>  <ENDPOINT_NAME>
kon

>  <MEASURED>
2.04e+06

$$$$
>  <BINDER>
AB251 (antibody, V domains shown, also called hMAK195VH.1b / hMAK195VL.2a) VH: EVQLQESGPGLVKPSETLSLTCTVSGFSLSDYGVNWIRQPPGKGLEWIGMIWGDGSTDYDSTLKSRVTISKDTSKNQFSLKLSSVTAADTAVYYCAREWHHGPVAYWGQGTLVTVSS VL: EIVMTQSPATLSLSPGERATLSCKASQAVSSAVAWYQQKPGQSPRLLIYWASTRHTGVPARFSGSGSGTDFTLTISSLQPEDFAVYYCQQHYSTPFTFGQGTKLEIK

>  <ENDPOINT_NAME>
kon

>  <MEASURED>
1.71e+06

$$$$
>  <BINDER>
AB252 (antibody, V domains shown, also called hMAK195VH.2 / hMAK195VL.1) VH: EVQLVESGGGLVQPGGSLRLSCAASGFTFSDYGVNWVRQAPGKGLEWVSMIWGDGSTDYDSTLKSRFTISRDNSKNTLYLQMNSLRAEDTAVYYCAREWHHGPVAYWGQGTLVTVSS VL: DIQMTQSPSSLSASVGDRVTITCKASQAVSSAVAWYQQKPGKAPKLLIYWASTRHTGVPSRFSGSGSGTDFTLTISSLQPEDFATYYCQQHYSTPFTFGQGTKLEIK

>  <ENDPOINT_NAME>
kon

>  <MEASURED>
2.92e+06

$$$$
>  <BINDER>
AB247 (antibody, V domains shown, also called hMAK195VH.1a / hMAK195VL.2a) VH: EVQLQESGPGLVKPSETLSLTCTVSGFSLSDYGVNWVRQPPGKGLEWLGMIWGDGSTDYDSTLKSRLTISKDNSKSQISLKLSSVTAADTAVYYCAREWHHGPVAYWGQGTLVTVSS VL: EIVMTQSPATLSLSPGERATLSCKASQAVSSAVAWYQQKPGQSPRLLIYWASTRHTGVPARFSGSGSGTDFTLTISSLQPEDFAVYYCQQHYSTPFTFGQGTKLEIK

>  <ENDPOINT_NAME>
kon

>  <MEASURED>
2.62e+06

$$$$
>  <BINDER>
AB244 (antibody, V domains shown, also called hMAK195VH.1a / hMAK195VL.1) VH: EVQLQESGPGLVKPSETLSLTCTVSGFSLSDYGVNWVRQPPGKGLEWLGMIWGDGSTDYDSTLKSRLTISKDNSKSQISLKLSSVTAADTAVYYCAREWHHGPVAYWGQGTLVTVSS VL: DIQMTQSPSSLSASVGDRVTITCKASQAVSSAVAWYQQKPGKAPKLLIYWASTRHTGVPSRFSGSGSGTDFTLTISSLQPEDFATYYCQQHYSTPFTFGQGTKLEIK

>  <ENDPOINT_NAME>
kon

>  <MEASURED>
3.8e+06

$$$$
